Biological target: Recombinant human ALOX15 (Arachidonate 15-Lipoxygenase) (Homo sapiens, UniProt P16050)
Construct: full length encompassing amino acids 2-662(end); purchased BPS Biosciences 50220
Sequence (P16050 2-662): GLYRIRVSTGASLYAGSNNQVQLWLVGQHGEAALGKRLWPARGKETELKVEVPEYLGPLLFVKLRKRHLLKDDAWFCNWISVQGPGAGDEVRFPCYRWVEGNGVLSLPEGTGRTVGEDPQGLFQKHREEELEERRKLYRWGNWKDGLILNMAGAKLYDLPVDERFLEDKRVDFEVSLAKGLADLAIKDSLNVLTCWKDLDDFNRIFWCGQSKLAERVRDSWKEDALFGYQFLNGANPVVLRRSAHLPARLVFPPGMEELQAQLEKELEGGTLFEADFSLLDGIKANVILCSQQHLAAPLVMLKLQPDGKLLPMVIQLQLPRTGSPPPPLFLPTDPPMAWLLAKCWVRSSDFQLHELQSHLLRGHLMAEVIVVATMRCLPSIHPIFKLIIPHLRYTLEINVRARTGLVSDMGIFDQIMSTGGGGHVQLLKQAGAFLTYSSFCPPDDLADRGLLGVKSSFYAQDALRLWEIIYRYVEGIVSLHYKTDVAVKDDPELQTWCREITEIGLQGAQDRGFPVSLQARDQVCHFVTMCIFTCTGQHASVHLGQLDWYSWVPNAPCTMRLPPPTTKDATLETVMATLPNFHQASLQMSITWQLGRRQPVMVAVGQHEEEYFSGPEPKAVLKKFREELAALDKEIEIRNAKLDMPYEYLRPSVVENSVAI
Assay: Biochemical LOX-15 assay
Conditions: recombinant enzyme; read-out: Inhibitory Activity EC50, 15-Lox
property: pEC50
Keep it numeric: pEC50 is minus log10 of the concentration in mol/L.

Summary for this compound, `CCCCCc1cc(O)c(C/C=C(\C)CCC=C(C)C)c(O)c1O` : pEC50 is 5.55
